PROTOCOL DETAILS: Liquid-liquid extraction of mono-salt saline solution
CONDITION DESCRIPTION: 0.1M CEM + 3.52M ASM2 in CH2Cl2; initial salt 0.1 mol/L; Org./Water = 1; molar %
Text: The extracting composition is obtained by solubilizing an amount of CEM and ASM in the selected fluidizing agent, dichloromethane CH2Cl2, dichlorobenzene or dichlorotoluene or any other fluidizing agent able to well solubilize the mixture CEM/ASM in order to obtain the searched final concentrations after solubilizing CEMs and ASMs in a minimum of 3 milliliters of fluidizing agent. If the selected fluidizing agent is also an ASM compound, so the selected ASM volume is at least 3 milliliters. […]
METRIC: Extraction rate at room temperature (RT), BaCl2 (%)
Numbers only here, please. The scale is %.

{"COMPOUND": "CCN(CC)C(=O)COc1c2cc(C(C)(C)C)cc1Cc1cc(C(C)(C)C)cc(c1OCC(=O)N(CC)CC)Cc1cc(C(C)(C)C)cc(c1OCC(=O)N(CC)CC)Cc1cc(C(C)(C)C)cc(c1OCC(=O)N(CC)CC)Cc1cc(C(C)(C)C)cc(c1OCC(=O)N(CC)CC)Cc1cc(C(C)(C)C)cc(c1OCC(=O)N(CC)CC)C2 [CEM2]", "OBSERVED": 63.2}
{"COMPOUND": "CCOC(=O)COc1c2cc(C(C)(C)C)cc1Cc1cc(C(C)(C)C)cc(c1OCC(=O)OCC)Cc1cc(C(C)(C)C)cc(c1OCC(=O)OCC)Cc1cc(C(C)(C)C)cc(c1OCC(=O)OCC)Cc1cc(C(C)(C)C)cc(c1OCC(=O)OCC)Cc1cc(C(C)(C)C)cc(c1OCC(=O)OCC)C2 [CEM12]", "OBSERVED": 11.8}
{"COMPOUND": "CCN(CC)C(=O)COc1c2cc(C(C)(C)C)cc1Cc1cc(C(C)(C)C)cc(c1OCC(=O)N(CC)CC)Cc1cc(C(C)(C)C)cc(c1OCC(=O)N(CC)CC)Cc1cc(C(C)(C)C)cc(c1OCC(=O)N(CC)CC)C2 [CEM1]", "OBSERVED": 46.1}

Continue with the compound presented below.
Exam item: Record request: Extraction rate at room temperature (RT), BaCl2 value, item CCOC(=O)COc1c2cc(C(C)(C)C)cc1Cc1cc(C(C)(C)C)cc(c1OCC(=O)OCC)Cc1cc(C(C)(C)C)cc(c1OCC(=O)OCC)Cc1cc(C(C)(C)C)cc(c1OCC(=O)OCC)C2 [CEM10]
Marked response: 3.7

* * *

PROTOCOL DETAILS: Complexing constant Log K in methanol at 25° C.
Format: binding
METRIC: Log K(Li^+, MeOH, 25° C.)
Please state the value as a number alone, without comment.

Exam item: Endpoint output: Log K(Li^+, MeOH, 25° C.) of `CCOC(=O)COc1c2cc(C(C)(C)C)cc1Cc1cc(C(C)(C)C)cc(c1OCC(=O)OCC)Cc1cc(C(C)(C)C)cc(c1OCC(=O)OCC)Cc1cc(C(C)(C)C)cc(c1OCC(=O)OCC)C2` . Value?
Marked response: 2.6

* * *

Listed below: Log K(K^+, MeOH, 25° C.) values for each entry.
PROTOCOL DETAILS: Complexing constant Log K in methanol at 25° C.
Assay type: binding
Write the value as a bare number.

Example compounds with recorded Log K(K^+, MeOH, 25° C.):
{"STRUCTURE AS SMILES": "CCOC(=O)COc1c2cc(C(C)(C)C)cc1Cc1cc(C(C)(C)C)cc(c1OCC(=O)OCC)Cc1cc(C(C)(C)C)cc(c1OCC(=O)OCC)Cc1cc(C(C)(C)C)cc(c1OCC(=O)OCC)C2", "METRIC": "Log K(K^+, MeOH, 25° C.)", "OBSERVED": 2.4}
{"STRUCTURE AS SMILES": "CCN(CC)C(=O)COc1c2cc(C(C)(C)C)cc1Cc1cc(C(C)(C)C)cc(c1OCC(=O)N(CC)CC)Cc1cc(C(C)(C)C)cc(c1OCC(=O)N(CC)CC)Cc1cc(C(C)(C)C)cc(c1OCC(=O)N(CC)CC)C2", "METRIC": "Log K(K^+, MeOH, 25° C.)", "OBSERVED": 5.8}

Now examine the next entry.
Exam item: Data request, read-out Log K(K^+, MeOH, 25° C.), for `CC(C)(C)c1cc2c(OCC(=O)N3CCCC3)c(c1)Cc1cc(C(C)(C)C)cc(c1OCC(=O)N1CCCC1)Cc1cc(C(C)(C)C)cc(c1OCC(=O)N1CCCC1)Cc1cc(C(C)(C)C)cc(c1OCC(=O)N1CCCC1)C2`
Marked response: 5.4

* * *

The entries below are paired with their reported Log K(Cs^+, MeOH, 25° C.).
PROTOCOL DETAILS: Complexing constant Log K in methanol at 25° C.
Assay type: binding
Quick one: just the number, no unit, thanks!

// known answers, use as guide
{"STRUCTURE AS SMILES": "CCN(CC)C(=O)COc1c2cc(C(C)(C)C)cc1Cc1cc(C(C)(C)C)cc(c1OCC(=O)N(CC)CC)Cc1cc(C(C)(C)C)cc(c1OCC(=O)N(CC)CC)Cc1cc(C(C)(C)C)cc(c1OCC(=O)N(CC)CC)C2", "Log K(Cs^+, MeOH, 25° C.)": 2.5}
{"STRUCTURE AS SMILES": "CCN(CC)C(=O)COc1c2cc(C(C)(C)C)cc1Cc1cc(C(C)(C)C)cc(c1OCC(=O)N(CC)CC)Cc1cc(C(C)(C)C)cc(c1OCC(=O)N(CC)CC)Cc1cc(C(C)(C)C)cc(c1OCC(=O)N(CC)CC)Cc1cc(C(C)(C)C)cc(c1OCC(=O)N(CC)CC)Cc1cc(C(C)(C)C)cc(c1OCC(=O)N(CC)CC)C2", "Log K(Cs^+, MeOH, 25° C.)": 2.8}
{"STRUCTURE AS SMILES": "CC(C)(C)c1cc2c(OCC(=O)N3CCCC3)c(c1)Cc1cc(C(C)(C)C)cc(c1OCC(=O)N1CCCC1)Cc1cc(C(C)(C)C)cc(c1OCC(=O)N1CCCC1)Cc1cc(C(C)(C)C)cc(c1OCC(=O)N1CCCC1)C2", "Log K(Cs^+, MeOH, 25° C.)": 1.0}
{"STRUCTURE AS SMILES": "CCOC(=O)COc1c2cc(C(C)(C)C)cc1Cc1cc(C(C)(C)C)cc(c1OCC(=O)OCC)Cc1cc(C(C)(C)C)cc(c1OCC(=O)OCC)Cc1cc(C(C)(C)C)cc(c1OCC(=O)OCC)Cc1cc(C(C)(C)C)cc(c1OCC(=O)OCC)C2", "Log K(Cs^+, MeOH, 25° C.)": 5.5}

Let us move to another entry and its Log K(Cs^+, MeOH, 25° C.).
Exam item: What Log K(Cs^+, MeOH, 25° C.) value was documented for this compound, `CCOC(=O)COc1c2cc(C(C)(C)C)cc1Cc1cc(C(C)(C)C)cc(c1OCC(=O)OCC)Cc1cc(C(C)(C)C)cc(c1OCC(=O)OCC)Cc1cc(C(C)(C)C)cc(c1OCC(=O)OCC)C2` ?
Marked response: 2.7

* * *

PROTOCOL DETAILS: Complexing constant Log K in methanol at 25° C.
Type: binding
METRIC: Log K(K^+, MeOH, 25° C.)
Could you keep your reply to the number by itself?

{"STRUCTURE AS SMILES": "CCN(CC)C(=O)COc1c2cc(C(C)(C)C)cc1Cc1cc(C(C)(C)C)cc(c1OCC(=O)N(CC)CC)Cc1cc(C(C)(C)C)cc(c1OCC(=O)N(CC)CC)Cc1cc(C(C)(C)C)cc(c1OCC(=O)N(CC)CC)Cc1cc(C(C)(C)C)cc(c1OCC(=O)N(CC)CC)Cc1cc(C(C)(C)C)cc(c1OCC(=O)N(CC)CC)C2", "OBSERVED": 3.3}

Here's the next entry for you.
Exam item: Recorded Log K(K^+, MeOH, 25° C.) of `CCOC(=O)COc1c2cc(C(C)(C)C)cc1Cc1cc(C(C)(C)C)cc(c1OCC(=O)OCC)Cc1cc(C(C)(C)C)cc(c1OCC(=O)OCC)Cc1cc(C(C)(C)C)cc(c1OCC(=O)OCC)Cc1cc(C(C)(C)C)cc(c1OCC(=O)OCC)C2` , please.
Marked response: 5.3

* * *

PROTOCOL DETAILS: Liquid-liquid extraction of mono-salt saline solution
CONDITION DESCRIPTION: 0.1M CEM + 3.52M ASM2 in CH2Cl2; initial salt 0.1 mol/L; Org./Water = 1; molar %
# Extraction rate at room temperature (RT), CaCl2 per record follows
I'd appreciate it if you wrote the number followed by its unit.

Answered cases to consult:
{"STRUCTURE AS SMILES": "CCN(CC)C(=O)COc1c2cc(C(C)(C)C)cc1Cc1cc(C(C)(C)C)cc(c1OCC(=O)N(CC)CC)Cc1cc(C(C)(C)C)cc(c1OCC(=O)N(CC)CC)Cc1cc(C(C)(C)C)cc(c1OCC(=O)N(CC)CC)Cc1cc(C(C)(C)C)cc(c1OCC(=O)N(CC)CC)Cc1cc(C(C)(C)C)cc(c1OCC(=O)N(CC)CC)C2", "OBSERVED": "57.8%"}
{"STRUCTURE AS SMILES": "CCN(CC)C(=O)COc1c2cc(C(C)(C)C)cc1Cc1cc(C(C)(C)C)cc(c1OCC(=O)N(CC)CC)Cc1cc(C(C)(C)C)cc(c1OCC(=O)N(CC)CC)Cc1cc(C(C)(C)C)cc(c1OCC(=O)N(CC)CC)C2", "OBSERVED": "59.4%"}
{"STRUCTURE AS SMILES": "CCOC(=O)COc1c2cc(C(C)(C)C)cc1Cc1cc(C(C)(C)C)cc(c1OCC(=O)OCC)Cc1cc(C(C)(C)C)cc(c1OCC(=O)OCC)Cc1cc(C(C)(C)C)cc(c1OCC(=O)OCC)Cc1cc(C(C)(C)C)cc(c1OCC(=O)OCC)Cc1cc(C(C)(C)C)cc(c1OCC(=O)OCC)C2", "OBSERVED": "5.5%"}

Consider the additional compound presented here.
Exam item: Param item = `CCOC(=O)COc1c2cc(C(C)(C)C)cc1Cc1cc(C(C)(C)C)cc(c1OCC(=O)OCC)Cc1cc(C(C)(C)C)cc(c1OCC(=O)OCC)Cc1cc(C(C)(C)C)cc(c1OCC(=O)OCC)C2` ; retrieve measured Extraction rate at room temperature (RT), CaCl2.
Marked response: 4.7%
